Known IC50 of a selection of compounds
System: MYC
Assay: In vitro transcription-translation (IVTT) assay, MYC reporter
Assay type: biochemical
Conditions: IVTT assay, HeLa S3 lysate, MYC reporter, normalized sfGFP/mCherry ratio; half-log dilutions 30 μM-0.1 μM, 2 hrs at 30° C.

Here are 3 compounds together with their reported answers.
# Compound Structure String, IC50
records = [
    ("O=C(NCC[C@@H]1CCCN1)O[C@@H]1[C@@H](O)CN[C@@H]1Cc1ccc(-c2ccc(F)c(F)c2)cc1", "> 30 µM"),
    ("O=C(NCCc1cc(F)c(O)c(F)c1)O[C@@H]1[C@@H](O)CN[C@@H]1Cc1ccc(-c2cnco2)cc1", "< 10 µM"),
    ("COc1ccc(C[C@H]2NC[C@H](O)[C@H]2OC(=O)NCC[C@@H]2CCC3(CC3)N2)cc1", "< 10 µM"),
]

I'd like to know its IC50. The compound in question is COc1ccc(C[C@H]2NC[C@H](O)[C@H]2OC(=O)NC[C@H]2CCNC2)cc1F
> 30 µM

====

Tested on: NCI-H1915
Experiment: Cell viability (CellTiter-Fluor), NCI-H1915
Type: cell-based
Conditions: 24-72 hrs
pIC50: −log10 of the molar value.
Property: pIC50

Would you please look over these solved cases?
# Compound Structure String, pIC50
records = [
    ("COc1ccc(C[C@H]2NC[C@H](O)[C@H]2OC(=O)NC[C@H]2CCNC2)cc1", "≤ 5.40"),
    ("COc1ccc(C[C@H]2NC[C@H](O)[C@H]2OC(=O)NCC2CC2)cc1", "6.00 to 6.60"),
    ("COc1ccc(C[C@H]2NC[C@H](O)[C@H]2OC(=O)NCc2ccnnc2)cc1", "6.00 to 6.60"),
    ("COc1ccc(C[C@H]2NC[C@H](O)[C@H]2OC(=O)NCC[C@@H]2CCNC2)cc1", "≤ 5.40"),
    ("COc1ccc(C[C@H]2NC[C@H](O)[C@H]2OC(=O)NCc2ccnc(N)c2)cc1", "6.00 to 6.60"),
    ("COc1ccc(C[C@H]2NC[C@H](O)[C@H]2OC(=O)NCc2ccncc2)cc1", "> 6.60"),
    ("COc1ccc(C[C@H]2NC[C@H](O)[C@H]2OC(=O)NCCc2cn[nH]c2)cc1", "6.00 to 6.60"),
    ("COc1ccc(C[C@H]2NC[C@H](O)[C@H]2OC(=O)NCc2c[nH]nn2)cc1", "5.40 to 6.00"),
]

What measured pIC50 goes with COc1ccc(C[C@H]2NC[C@H](O)[C@H]2OC(=O)NCc2cc[nH]c(=O)c2)cc1 ?
5.40 to 6.00

Quick one: COc1ccc(C[C@H]2NC[C@H](O)[C@H]2OC(=O)NCc2ccccc2)cc1
> 6.60

====

System: MYC
Assay: In vitro transcription-translation (IVTT) assay, MYC reporter
Assay type: biochemical
Settings: IVTT assay, HeLa S3 lysate, MYC reporter, normalized sfGFP/mCherry ratio; half-log dilutions 30 μM-0.1 μM, 2 hrs at 30° C.
Catalogue of compounds with associated IC50

Below are worked cases with known answers.
# Compound Structure String, IC50
rows = [
    ("O=C(NCc1cccc(F)c1)O[C@@H]1[C@@H](O)CN[C@@H]1Cc1ccc(Oc2cccnc2)cc1", "< 10 µM"),
    ("COc1ccc(C[C@H]2NC[C@H](O)[C@H]2OC(=O)NCC(=O)N[C@@H](C)C(=O)O)cc1", "10 to 20 µM"),
    ("COc1ccc(C[C@H]2NC[C@H](O)[C@H]2OC(=O)NCC(=O)NCC(=O)O)cc1", "10 to 20 µM"),
    ("COc1ccc(C[C@H]2NC[C@H](O)[C@H]2OC(=O)NCc2ccnc(N3CC4(CCC4)C3)c2)cc1", "< 10 µM"),
]

Data request, read-out IC50, for COc1ccc(C[C@H]2NC[C@H](O)[C@H]2OC(=O)NCCC[C@H]2CCNC2)cc1
< 10 µM

Okay, and O=C(NCC[C@H]1CCCO1)O[C@@H]1[C@@H](O)CN[C@@H]1Cc1ccc(-c2cncs2)cc1 ?
< 10 µM

Queued: O=C(NCCC12CNC(C1)C2)O[C@@H]1[C@@H](O)CN[C@@H]1Cc1ccc(-c2cnco2)cc1
< 10 µM

Next: O=C(NCC[C@H]1CCCN1)O[C@@H]1[C@@H](O)CN[C@@H]1Cc1ccc(-c2ccc3c(c2)CC(F)(F)C3)cc1
10 to 20 µM

====

Tested on: KRAS G12D
Assay: In vitro transcription-translation (IVTT) assay, KRAS G12D reporter
Type: biochemical
Settings: HeLa S3 lysate, sfGFP/mCherry ratio, 2 hrs at 30° C.
Reported IC50 values for the following compounds.

# Compound, Data Value
records = [
    ("COc1ccc(CC2NCC(O)C2OC(=O)NC2CC(N)C2)cc1 (stereo not drawn) [V187682]", "> 30 µM"),
]

What value of IC50 has been recorded for this entry: COc1ccc(CC2NCC(O)C2OC(=O)NC2CC(N)C2)cc1 (stereo not drawn) [V187681]
> 30 µM

For COc1ccc(C[C@H]2NC[C@H](O)[C@H]2OC(=O)NCCNc2c(NCc3ccccc3)c(=O)c2=O)cc1 then?
> 30 µM

Queued: COc1ccc(C[C@H]2NC[C@H](O)[C@H]2OC(=O)NCCc2cn[nH]c2)cc1
< 10 µM

One more compound: COc1ccc(C[C@H]2NC[C@H](O)[C@H]2OC(=O)NCC[C@H]2CN(CC3CCCO3)CCN2Cc2ccccc2)cc1 (stereo partly drawn)
> 30 µM

# repeat for COc1ccc(C[C@H]2NC[C@H](O)[C@H]2OC(=O)Nc2n[nH]c(C)n2)cc1
20 to 30 µM

Same again, this time with COc1ccc(C[C@H]2NC[C@H](O)[C@H]2OC(=O)NCCCCCN(C)C)cc1
10 to 20 µM

Similarly, COc1ccc(C[C@H]2NC[C@H](O)[C@H]2OC(=O)NCCOCCn2ccnc2)cc1 ?
10 to 20 µM

Now consider COc1ccc(C[C@H]2NC[C@H](O)[C@H]2OC(=O)NCCCCCO)cc1 .
< 10 µM

How about this compound: COc1ccc(C[C@H]2NC[C@H](O)[C@H]2OC(=O)NCCc2ccncc2)cc1
< 10 µM

====

System: CCND1
Assay: In vitro transcription-translation (IVTT) assay, CCND1 reporter
Assay type: biochemical
Conditions: HeLa S3 lysate, sfGFP/mCherry ratio, 2 hrs at 30° C.
pIC50: −log10 of the molar value.
Property: pIC50

For orientation, consider the following solved cases.
# Compound Structure String, Study System, pIC50
records = [
    ("COc1ccc(C[C@H]2NC[C@H](O)[C@H]2OC(=O)NC[C@@H]2CNC[C@H]2O)cc1", "CCND1", "< 4.52"),
    ("COc1ccc(C[C@H]2NC[C@H](O)[C@H]2OC(=O)NCCn2ccnc2C)cc1", "CCND1", "4.52 to 4.70"),
    ("COc1ccc(C[C@H]2NC[C@H](O)[C@H]2OC(=O)NCC[C@H]2CCNC2)cc1", "CCND1", "> 5.00"),
    ("COc1ccc(C[C@H]2NC[C@H](O)[C@H]2OC(=O)NCCc2nc[nH]c2C)cc1", "CCND1", "4.70 to 5.00"),
    ("COc1ccc(C[C@H]2NC[C@H](O)[C@H]2OC(=O)NCCc2n[nH]cc2C#N)cc1", "CCND1", "> 5.00"),
    ("COc1ccc(C[C@H]2NC[C@H](O)[C@H]2OC(=O)NCc2ccc(B(O)O)cc2)cc1", "CCND1", "> 5.00"),
]

Form field: reported pIC50 of COc1ccc(C[C@H]2NC[C@H](O)[C@H]2OC(=O)NCc2ccc(-c3ccccc3)cc2)cc1
< 4.52

And the next one, COc1ccc(C[C@H]2NC[C@H](O)[C@H]2OC(=O)NCC(N)=O)cc1 ?
> 5.00

====

A collection of compounds and their measured IC50
System: KRAS G12D
Assay: In vitro transcription-translation (IVTT) assay, KRAS G12D reporter
Assay type: biochemical
Conditions: HeLa S3 lysate, sfGFP/mCherry ratio, 2 hrs at 30° C.

# Compound, IC50
measured = [
    ("COc1ccc(C[C@H]2NC[C@H](O)[C@H]2OC(=O)NCCCCCn2ccnc2)cc1", "< 10 µM"),
]

Reported IC50 for CCNc1c(NCCNC(=O)O[C@@H]2[C@@H](O)CN[C@@H]2Cc2ccc(OC)cc2)c(=O)c1=O : what is it?
> 30 µM

CCN(CC)CCCCNC(=O)O[C@@H]1[C@@H](O)CN[C@@H]1Cc1ccc(OC)cc1 ?
20 to 30 µM

How about COc1ccc(C[C@H]2NC[C@H](O)[C@H]2OC(=O)NCc2cocn2)cc1 ?
< 10 µM

What do we get for COc1ccc(C[C@H]2NC[C@H](O)[C@H]2OC(=O)NC[C@@H]2CCCO2)cc1 [V187520, trifluoroacetic acid] ?
> 30 µM

Param item: COc1ccc(C[C@@H]2NC[C@@H](O)[C@H]2OC(=O)NCCN(CCC(N)=O)Cc2c[nH]cn2)cc1
20 to 30 µM

Same question, COc1ccc(C[C@H]2NC[C@H](O)[C@H]2OC(=O)NCc2ccccc2)cc1 this time
< 10 µM
